Tested on: SNB-75 CNS
Assay: NCI tumour cell line growth inhibition, 48 h; in the data active = GI50 below about 0.43 µM; inactive = the rest
Thanks in advance; please answer with one of these: yes (1) = active, no (0) = inactive

The examples below pair each entry with its known result.
{"Smiles Structure": "COc1cccc2c1C(=O)c1c(O)c3c(c(O)c1C2=O)C[C@@](O)(/C(CO)=N/NC(=O)CCCCCN1C(=O)C=CC1=O)C[C@@H]3O[C@H]1C[C@H](N)[C@H](O)[C@H](C)O1", "Discrete Label": "yes (1)"}
{"Smiles Structure": "C#C[C@@]1(O)[C@@H](CO)O[C@@H](n2cc(Br)c3c(Cl)ccnc32)[C@@H]1O", "Discrete Label": "no (0)"}

Proceed to the following item.
Problem: For this compound, state the assay outcome: `c1ccc(-c2[nH]ncc2-c2ccnc(-c3ccc(OCCN4CCOCC4)cc3)c2)nc1`
Result: no (0)
